Please respond with reported Emax for every item in the list.
Assay notes: Antiproliferative activity against human D283 cells assessed as growth inhibition after 48 hrs by sulforhodamine B assay relative to control
Assay type: functional
Condition details: D283, 48 h
Number first, unit second: that is the form wanted.

Compound: C=CC(=C)CCC1(C)C(C)CC(O)C23C(=C[C@H](OC(=O)/C(C)=C\C)CC12)[C@@H](OC(C)=O)O[C@H]3OC(C)=O (stereo partly drawn)
Emax: 100%

Compound: C=CC(=C)CCC1(C)C(C)CC(=O)C23C(=C[C@H](OC(=O)CC(C)C)CC12)[C@@H](OC(C)=O)O[C@H]3OC(C)=O (stereo partly drawn)
Emax: 100%

For the next question, use this compound.
Answer with reported Emax of C=CC(=C)CCC1(C)C(C)CC(=O)C23C(=C[C@H](OC(=O)[C@@H](C)CC)CC12)[C@@H](OC(C)=O)O[C@H]3OC(C)=O (stereo partly drawn)
100%
